The following molecules each carry a recorded Ki for Plasminogen (Homo sapiens).

Past entries and their recorded results:
N=C(N)Nc1ccc(NC(=O)c2cc3ccccc3c(Br)c2O)cn1 > 75 µM
Cc1cc(I)c(O)c(C(=O)Nc2ccc(NC(=N)N)cc2)c1 > 75 µM
N=C(N)Nc1ccc(NC(=O)c2cc3ccccc3c(I)c2O)cn1 > 75 µM
Cc1ccc(O)c(C(=O)Nc2ccc(NC(=N)N)cc2)c1 > 75 µM

// below: Ki requested for another molecule
// recorded Ki for NC(N)=Nc1ccc(NC(=O)c2ccccc2O)cc1 : > 75 µM
